Test system: Trypanosoma cruzi
Assay: GSK_TCAKS: pIC50 Trypanosoma cruzi Imaging: Infected Cells. […] Cells were then washed once with PBS before infection. T. cruzi trypomastigotes, collected at days 5 to 8 after infection from LLC-MK2 parasite infected cultures, were allowed to swim out for 4h at 37C from a centrifuged pellet (2,500 rpm/10 min/room temperature). Trypomastigotes were then collected and counted in a CASY Cell Counter. Trypomastigotes, in supplemented DMEM, were added to H9c2 cultures in a multiplicity of infection of 1 and incubated for 18 h. Cells were washed once with PBS before incubation of the infected H9c2 monolayer with trypsin (Life-Technologies) to detach cells from the flask. Cells were counted in a CASY Cell Counter using a 150 um capillary and their density set at 5 * 10^4 cells per mL in supplemented assay DMEM. Infected H9c2 were dispensed into 384-well poly-lysine coated assay plates at 50uL per well using a Multidrop Combi dispenser. After seeding them, the plates were incubated at 37C, 5% CO2 for 72h. Cultures were then fixed and stained by addition of 50 uL of a solution containing 8% formaldehyde and 4 uM DRAQ5 DNA dye (BioStatus, UK) per well. […] Five images were collected per well for reliable statistical analysis. Automated image analysis was performed with a script developed on Acapella High Content Imaging and Analysis Software (PerkinElmer). Output: percentage of infected cells per well as a second infection marker.
Assay type: functional, organism-based, Rattus norvegicus
Conditions: H9c2, 4 h
pIC50: −log10 of the molar value.
Outcome label depends on pIC50 relative to 6: at/above gives yes (1), below gives no (0).

>>> class_assignment("O=C(N[C@H](CO)c1ccccc1)c1ccc(-c2c[nH]c3nccc(C(F)(F)F)c23)s1")
"no (0)"
>>> class_assignment("CNc1nc(C)nc(N2CCc3cc(C(=O)NCc4ccc(-c5cc[nH]n5)cc4Cl)ccc32)n1")
"no (0)"
>>> class_assignment("O=C(c1ccc(Cl)cc1)c1ccc(OC(=O)N2CCOCC2)cc1")
"no (0)"
>>> class_assignment("Cc1ccc(S(=O)(=O)Nc2ccc(CN3CCN(C(=O)c4cccc(C#N)c4)CC3)cc2)cc1")
"yes (1)"
>>> class_assignment("COc1ccc2c(Cl)c(C(=O)N3CCC3)sc2c1Cl")
"no (0)"
>>> class_assignment("O=c1nc(NCCCNCc2cc(Br)cc(Br)c2)[nH]c2ccsc12")
"yes (1)"
>>> class_assignment("CCN(CC)S(=O)(=O)c1ccc(C(=O)Nc2cc(C)nn2-c2nc(C)c(C)c(=O)[nH]2)cc1")
"no (0)"
>>> class_assignment("CCCc1cc(C(=O)Nc2ncc(-c3cccc(Br)c3)n2C)[nH]n1")
"no (0)"
>>> class_assignment("O=c1cc(NCCCNCc2c[nH]c3ccc(Br)cc23)[nH]c2ccccc12")
"no (0)"
>>> class_assignment("CCS(=O)(=O)c1cccc(C(=O)Nc2nc(-c3ccccn3)cs2)c1")
"no (0)"

----------
Below is a list of entries, each paired with its recorded pIC50 value.
Biological target: Sterol 14-alpha demethylase (Trypanosoma cruzi (strain CL Brener), UniProt Q7Z1V1)
Sequence (Q7Z1V1 whole entry): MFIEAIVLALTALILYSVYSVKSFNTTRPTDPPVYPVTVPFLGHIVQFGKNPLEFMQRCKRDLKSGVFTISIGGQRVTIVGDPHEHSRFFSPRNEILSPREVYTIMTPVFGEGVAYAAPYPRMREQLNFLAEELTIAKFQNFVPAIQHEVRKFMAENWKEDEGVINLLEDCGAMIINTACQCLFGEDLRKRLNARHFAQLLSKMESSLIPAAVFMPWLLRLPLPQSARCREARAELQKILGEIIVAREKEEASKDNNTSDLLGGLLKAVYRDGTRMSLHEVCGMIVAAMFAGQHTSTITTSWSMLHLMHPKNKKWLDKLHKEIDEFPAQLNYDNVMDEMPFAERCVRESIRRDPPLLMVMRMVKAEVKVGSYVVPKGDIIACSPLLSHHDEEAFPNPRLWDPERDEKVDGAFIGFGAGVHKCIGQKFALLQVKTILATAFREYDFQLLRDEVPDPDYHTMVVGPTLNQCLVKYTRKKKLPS
Test: GSK_TCAKS: pIC50 CYP51 from Trypanosoma cruzi.
pIC50: −log10 of the molar value.
QUANTITY_NAME: pIC50

>>> value_measured("CC(=O)Nc1ccc(-c2cnc(N)c(-c3nc4ccc(F)cc4[nH]3)c2)cc1")
4.20
>>> value_measured("COc1cnc2ccc(=O)n(CCN3CCC(NC/C=C/c4cc(F)ccc4F)CC3)c2c1")
4.80
>>> value_measured("Cc1ccc(C)c(OC2CCN(C(=O)C(C)n3ccnc3)CC2)c1 (stereo unspecified)")
7.00
>>> value_measured("COc1ccc(CNc2cc(C3CC3)nc(-c3nccn3C)n2)cc1")
5.30
>>> value_measured("Cc1sc(C)c(C(F)(F)F)c1CNCCCNc1cc(=O)c2ccccc2[nH]1")
4.70
>>> value_measured("COc1ccc(CN(C)Cc2ccncc2)cc1-c1ccc(S(=O)(=O)NC2CCC2)s1")
7.10

----------
Test: GSK_TCAKS: pIC50 HepG2 human cell line viability assay using luminiscence. […] Seeding density was checked to ensure that new mono-layers were not more than 50% confluent at the time of harvesting. Cell suspension was added to 500 mL of the same medium at a final density of 1.2 * 10^5 cells/mL. This cell suspension was dispensed (25 uL, 3000 cells per well) into 384-well clear-bottom plates using a Multidrop Combi dispenser. Prior to addition of the cell suspension, the screening compounds (250 nL) were pre-dispensed into the plates with an Echo liquid handler. Plates were incubated for 48 h at 37C, 5% CO2. After incubation, plates equilibrated at room temperature for 30 min before proceeding to develop the luminescent signal. The signal developer, CellTiter-Glo Reagent, was allowed to equilibrate at room temperature for 30 min and added to the plates (25uL per well) using a Multidrop Combi dispenser. Plates were left for 10 min at room temperature for stabilization and then read using a ViewLux.
Assay type: toxicity, cell-based
QUANTITY_NAME: IC50 at 48 h

>>> value_measured("Cn1cc(CN2CCN(c3ccc4c(c3)CCN(C(=O)[C@H]3C[C@@H]3c3ccccc3)CC4)CC2)cn1")
"50.1 µM"
>>> value_measured("C[C@@H](Oc1cc(-n2cnc3ccc(C(O)CO)cc32)sc1C(N)=O)c1ccccc1C(F)(F)F (some centres not stated)")
"> 10 µM"
>>> value_measured("Cc1ccccc1NS(=O)(=O)c1ccc2[nH]cc(C(=O)NC3CCCC(C)C3C)c(=O)c2c1 (configuration not stated)")
"39.8 µM"
>>> value_measured("Cc1nc(N2CCC(C(=O)N3CCC(O)(c4cccnc4)CC3)CC2)nc2ccc(C(C)C)cc12")
"79.4 µM"
>>> value_measured("Cn1nccc1NC(=O)Cn1ccc(-c2ccncc2)n1")
"> 100 µM"
>>> value_measured("Cc1nccn1C1CCCN(C(=O)c2cc3c(F)cccc3s2)C1 (configuration not stated)")
"> 100 µM"
>>> value_measured("CS(=O)(=O)c1ccc(CC(=O)Nc2nc(-c3ccc(Cl)s3)cs2)cc1")
"> 100 µM"
>>> value_measured("FC(F)(F)c1cc(C2CCCN(Cc3c[nH]c4ccccc34)C2)nc2ncnn12 (configuration not stated)")
"> 100 µM"
>>> value_measured("CCOc1ccc(Nc2ccc(S(=O)(=O)N3CCN(C)CC3)cc2[N+](=O)[O-])cc1OCC")
"> 100 µM"
>>> value_measured("NC(=O)c1ncccc1Nc1nc(N[C@H]2CC[C@H](O)CC2)ncc1Br")
"> 100 µM"
>>> value_measured("O=C(NCc1nnc2n1CCCCC2)c1csc(-c2ccccc2)n1")
"> 100 µM"
>>> value_measured("OCC1CCCCN1c1cc(-c2ccccn2)nc(Nc2ccccc2)n1 (configuration not stated)")
"31.6 µM"
>>> value_measured("CC(C)(C)C(=O)Nc1cc(C2CC2)nn1-c1nc2c(c(=O)[nH]1)CCCC2")
"> 100 µM"
>>> value_measured("Nc1cc(-c2ccc3ncnc(N4CCOCC4)c3c2)cnc1N")
"> 100 µM"
>>> value_measured("Cc1ccc(CNC2CCN(C[C@@H]3Cn4c(=O)ccc5ccc(=O)n3c54)CC2)cc1F")
"> 100 µM"
>>> value_measured("O[C@H]1CC[C@H](Nc2nccc(-c3sc(C4CCOCC4)nc3-c3ccc(F)c(F)c3)n2)CC1")
"25.1 µM"
>>> value_measured("COc1cc(OC)cc(C(=O)N[C@@H](CC(C)C)C(=O)NC2(C#N)CC2)c1")
"> 100 µM"
>>> value_measured("c1ccc(Nc2nc3ccccc3[nH]2)nc1")
"79.4 µM"
>>> value_measured("Cc1ccc(NC(=O)c2ccc([N+](=O)[O-])s2)cc1S(=O)(=O)N1CCOCC1")
"15.8 µM"
>>> value_measured("CCOC(=O)c1noc(N)c1-c1ccccc1")
"> 100 µM"
>>> value_measured("O=C(CC1(O)C(=O)N(Cc2ccccc2)c2ccc(Br)cc21)c1cccnc1 (configuration not stated)")
"63.1 µM"
>>> value_measured("CC(C)(C)C(=O)NCCc1csc(-c2ccc(F)cc2)n1")
"> 100 µM"
>>> value_measured("CNc1cncc(C2CCCN2C(=O)Cc2coc3cc(C)ccc23)n1 (configuration not stated)")
"> 100 µM"
>>> value_measured("Cc1cc(NC(=O)C2CC2)ccc1OC1CCN(Cc2ccco2)CC1")
"50.1 µM"
>>> value_measured("COC(=O)c1ccc(-c2cnc3ccc(NCc4ccccn4)nn23)cc1")
"100 µM"
>>> value_measured("COc1ccc(C(C)(C)C)cc1S(=O)(=O)n1ccnc1")
"> 100 µM"
>>> value_measured("COc1ccc(C(=O)Nc2cc(C(F)(F)F)ccc2N2CCOCC2)c(OC)c1")
"> 100 µM"
>>> value_measured("COc1ccc2c(Cl)c(C(=O)N3CCC3)sc2c1Cl")
"> 100 µM"
>>> value_measured("CCN(CC)c1ccc(S(=O)(=O)N(CC)CC)c2nonc12")
"> 100 µM"
>>> value_measured("CCOc1cnn(C)c(=O)c1Nc1ccc(C(=O)NCc2ccc(F)cc2)cc1")
"> 100 µM"
>>> value_measured("O=C1CN(C2CCCc3c(OCc4ccncc4)cccc32)C(=O)N1C1CCCCC1 (configuration not stated)")
"> 100 µM"
>>> value_measured("Cc1ccc(NC(=O)c2ccnc(N3CCCC3)c2)cc1-c1ccsc1C(N)=O")
"> 100 µM"
>>> value_measured("Cc1n[nH]c2c1C(c1ccc(OCc3ccccc3F)cc1)SCC(=O)N2 (configuration not stated)")
"> 100 µM"
>>> value_measured("Cc1ccc2nc(N(Cc3cccnc3)C(=O)CCc3ccccc3)sc2c1")
"> 100 µM"
>>> value_measured("O=C(NCC(c1cccnc1)N1CCc2ccccc2C1)C(=O)Nc1cccc(Cl)c1 (configuration not stated)")
"> 100 µM"
>>> value_measured("O=C(CCc1ccc(-c2ccccc2)o1)N1CCN(c2ccc(O)cc2)CC1")
"> 100 µM"
>>> value_measured("C=CCOCC1Cn2nc([N+](=O)[O-])nc2O1 (configuration not stated)")
"> 100 µM"
>>> value_measured("COc1ncc(-c2ccc3ncnc(N4CCOCC4)c3c2)cc1NS(C)(=O)=O")
"> 100 µM"
>>> value_measured("O=C(CN(c1cccc(C(F)(F)F)c1)S(=O)(=O)c1ccc(Cl)cc1)NCc1ccc(F)c(F)c1")
"> 100 µM"
>>> value_measured("Cc1ccc(-c2csc(NC(=O)C=Cc3ccc(S(=O)(=O)N4CCOCC4)cc3)n2)o1")
"> 100 µM"
>>> value_measured("c1ccc(CCNCc2cncc3nc(-c4cnccn4)n(C4CCCCC4)c23)cc1")
"> 100 µM"
>>> value_measured("Cc1cc(C)c(C#N)c(SCC(=O)c2ccc3c(c2)OCO3)n1")
"> 100 µM"
